All figures here come from the supplement of paper PMC12667976.

B1: library; numbered along this chain (parent)
chain: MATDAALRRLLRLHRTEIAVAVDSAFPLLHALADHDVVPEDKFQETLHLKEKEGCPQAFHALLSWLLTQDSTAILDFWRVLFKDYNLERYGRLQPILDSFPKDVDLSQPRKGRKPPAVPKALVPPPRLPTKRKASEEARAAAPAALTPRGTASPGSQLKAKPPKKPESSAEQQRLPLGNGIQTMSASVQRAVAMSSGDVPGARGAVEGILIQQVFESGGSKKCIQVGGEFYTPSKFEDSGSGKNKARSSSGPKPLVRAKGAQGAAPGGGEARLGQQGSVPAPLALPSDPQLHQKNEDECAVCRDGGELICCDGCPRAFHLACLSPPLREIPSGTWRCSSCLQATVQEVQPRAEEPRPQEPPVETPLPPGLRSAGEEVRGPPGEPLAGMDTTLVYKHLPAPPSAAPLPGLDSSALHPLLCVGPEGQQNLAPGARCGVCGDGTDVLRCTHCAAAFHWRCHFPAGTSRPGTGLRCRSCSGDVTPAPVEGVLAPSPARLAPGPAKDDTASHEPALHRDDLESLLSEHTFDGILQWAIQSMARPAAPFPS

# Variants of: B1
# test.summary: AIRE transcriptional activation functional score (insulin promoter-GFP; nonsense median 0, synonymous median 1) (normalised score); higher = higher AIRE activity (more reporter activation)
# condition.context: with insulin promoter-GFP reporter in HEK293
readout.name: AIRE transcriptional activation functional score
API doc: respond with a numeric literal and nothing else, no unit.

// query AIRE transcriptional activation functional score value for entry `L47A`
0.636

// query AIRE transcriptional activation functional score value for entry `H458V`
0.655

// query AIRE transcriptional activation functional score value for entry `S339F`
0.807

// query AIRE transcriptional activation functional score value for entry `G180K`
1.02

// query AIRE transcriptional activation functional score value for entry `P143E`
1.5

// query AIRE transcriptional activation functional score value for entry `P282E`
0.555

// query AIRE transcriptional activation functional score value for entry `L370F`
0.823

// query AIRE transcriptional activation functional score value for entry `V479Q`
1.24

// query AIRE transcriptional activation functional score value for entry `G369A`
0.861

// query AIRE transcriptional activation functional score value for entry `A496C`
1.01

// query AIRE transcriptional activation functional score value for entry `P266F`
1.38

// query AIRE transcriptional activation functional score value for entry `L87R`
1.14

// query AIRE transcriptional activation functional score value for entry `P407A`
0.943

// query AIRE transcriptional activation functional score value for entry `Q157P`
1.1

// query AIRE transcriptional activation functional score value for entry `S169Y`
1.62

// query AIRE transcriptional activation functional score value for entry `T524G`
0.619

// query AIRE transcriptional activation functional score value for entry `R473N`
0.99

// query AIRE transcriptional activation functional score value for entry `L409F`
0.907

// query AIRE transcriptional activation functional score value for entry `F230Y`
0.502

// query AIRE transcriptional activation functional score value for entry `Q275R`
1.03

// query AIRE transcriptional activation functional score value for entry `A205T`
1.19

// query AIRE transcriptional activation functional score value for entry `P509T`
0.871
